Test: Solubility in water
Could you please report measured solubility for the items listed next?
Answers are plain numbers, in µg/mL.

CCc1ccc2cc3c4c(cccc4c2c1)C(=O)N(CCCCNCCCN1C(=O)c2cccc4c2c(cc2ccc(CC)cc24)C1=O)C3=O.CS(=O)(=O)O    150

I have 2 molecules here; please give me solubility for each one.
1. CS(=O)(=O)O.CS(=O)(=O)O.Cc1cnc2c(c1)cc1c3c(cc([N+](=O)[O-])cc32)C(=O)N([C@H](C)CNC[C@@H](C)NC[C@@H](C)N2C(=O)c3cc([N+](=O)[O-])cc4c3c(cc3cc(C)cnc34)C2=O)C1=O
2. CS(=O)(=O)O.O=C1c2cccc3cc([N+](=O)[O-])cc(c23)C(=O)N1CCCCNCCCN1C(=O)c2cccc3c2c(cc2ncccc23)C1=O

[4820, 680]
